B1: Hairpin Ribozyme (parent)
chain: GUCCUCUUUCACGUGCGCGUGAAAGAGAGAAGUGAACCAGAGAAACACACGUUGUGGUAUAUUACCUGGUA

variants of: B1; test: self-cleavage, relative activity (ratio to wild type); higher = more cleavage; co-transcriptional
property-measured: self-cleavage

INSERT INTO measurements (variant_identifier, reported) VALUES
  ('G19C G40U', 0.091),
  ('G27U C50U', 0.214),
  ('U63C', 0.186),
  ('G29A U60A', 0.137),
  ('U14A C46A', 0.232),
  ('U5A G40C', 0.159),
  ('U2C C37U', 0.113),
  ('G15C G56A', 0.129),
  ('A24G C50A', 0.187),
  ('U7A G40A', 0.313),
  ('U2A A22C', 0.341),
  ('C66A G69A', 0.268),
  ('A39C U63A', 0.17),
  ('G15C U62A', 0.14),
  ('G34C C38G', 0.683),
  ('A11G A31U', 0.0838),
  ('G27C G34U', 0.779),
  ('A35U A49C', 0.17),
  ('A43C G57C', 0.204),
  ('C6A U55C', 0.243),
  ('C10A U70A', 0.498),
  ('G32C U62A', 0.234),
  ('A23U U55C', 0.358),
  ('G34C U67A', 0.451),
  ('A41U U58G', 1.02),
  ('C37U U60G', 0.451),
  ('C37G A71U', 0.216),
  ('A36G U63G', 0.3),
  ('G13C C66U', 0.431),
  ('U14C G57A', 0.215),
  ('U60C A71C', 1.66),
  ('C6A C12A', 0.52),
  ('A36G U53A', 1.2),
  ('U62A A64U', 0.197),
  ('A22C A43U', 0.15),
  ('C10G A24U', 0.468),
  ('A49C U60G', 0.166),
  ('U8C U67G', 0.226),
  ('U58G A61U', 0.0693),
  ('G19U U52G', 0.741),
  ('U5A C65U', 0.222),
  ('G32U A47G', 0.0761),
  ('G1C C12A', 0.215),
  ('G27U U60A', 0.243),
  ('U67G G68C', 0.177),
  ('G27C U55A', 0.156),
  ('A11U U55G', 0.339),
  ('A41U C65U', 1.19),
  ('G25U C50G', 0.25),
  ('G15C A30U', 0.293),
  ('U20A A49U', 0.272),
  ('G17C G68A', 0.196),
  ('A26G G27A', 0.275),
  ('C6G G68C', 0.131),
  ('C16U G42A', 0.225),
  ('U58C G68U', 0.169),
  ('U33A A47U', 0.127),
  ('U60G U63A', 0.173),
  ('U52G U63G', 0.134),
  ('U2C C4G', 0.0947),
  ('U8C A61C', 0.0941),
  ('C37U C65A', 0.533),
  ('A28C C66A', 0.0844),
  ('C48G A71G', 0.142),
  ('G54C A59C', 0.195),
  ('U2C A31U', 0.25),
  ('C18G A61U', 0.247),
  ('C46A U55C', 0.324),
  ('C3U A49C', 0.112),
  ('A30C A64G', 0.0788),
  ('G17C C46G', 0.074),
  ('U63C G68A', 0.192),
  ('C18A A39G', 0.395),
  ('C50U A64U', 0.0365),
  ('U20C C38U', 0.415),
  ('G29C U33G', 0.13),
  ('A11U G42C', 0.271),
  ('G56A U62G', 0.293),
  ('G1U C38U', 0.127),
  ('U62G C66U', 0.12),
  ('C37G A39G', 0.328),
  ('A28G G40C', 0.166),
  ('A11C U53G', 0.863),
  ('C48A G56U', 0.304),
  ('A22G G40A', 0.272),
  ('G1A A30C', 0.291),
  ('U7G A43U', 0.123),
  ('A23G C50G', 0.153),
  ('A49C G56C', 0.12),
  ('U7G C48A', 0.142),
  ('G13C U33A', 0.0736);

Just for reference, the RNAGym collection of RNA variant scans (doi:10.7554/elife.80360) is where these values come from.
